FYI, the data here is from ChEMBL document CHEMBL1151995.

- System: H9
- methodDescription: Inhibition of uninfected H9 lymphocytic cell growth
- Type: functional, cell-based
- cond: Homo sapiens
Catalogue of molecules with associated log10 of IC50
Values are log10 of IC50 in µg/mL.

Below, each entry is followed by its recorded log10 of IC50 result.
Exam item: I am curious: what log10 of IC50 value has been reported for `O=C(O[C@H]1Cc2c(O)cc3c(c2O[C@H]1c1cc(O)c(O)c(O)c1)[C@H]1c2c(O)cc(O)cc2O[C@@](c2cc(O)c(O)c(O)c2)(O3)[C@@H]1O)c1cc(O)c(O)c(O)c1` ?
Marked response: 1.60

Exam item: log10 of IC50 for O=C(O[C@@H]1Cc2c(O)cc3c(c2O[C@@H]1c1cc(O)c(O)c(O)c1)C1(O)C(=O)O[C@H]([C@@H](O)CO)C1(O)O3)c1cc(O)c(O)c(O)c1 (stereo partly drawn) ?
Marked response: 1.60

Exam item: Item under review: O=C(O[C@@H]1Cc2c(O)cc(O)cc2OC1c1cc(O)c(O)c(O)c1-c1c(C2Oc3cc(O)cc(O)c3C[C@H]2OC(=O)c2cc(O)c(O)c(O)c2)cc(O)c(O)c1O)c1cc(O)c(O)c(O)c1 (single isomer, unassigned) . Reported log10 of IC50?
Marked response: 1.60

Exam item: // log10 of IC50 lookup, key: `O=C(O[C@@H]1[C@@H](c2c(O)cc(O)c3c2O[C@H](c2cc(O)c(O)c(O)c2)[C@H](OC(=O)c2cc(O)c(O)c(O)c2)C3)c2c(O)cc(O)cc2O[C@@H]1c1cc(O)c(O)c(O)c1)c1cc(O)c(O)c(O)c1`
Marked response: 1.60

Exam item: // log10 of IC50 lookup, key: `O=C(Oc1cc([C@H]2Oc3cc(O)cc(O)c3C[C@H]2OC(=O)c2cc(O)c(O)c(O)c2)cc(O)c1O)c1cc(O)c(O)c(O)c1`
Marked response: 1.60

Exam item: Data request, read-out log10 of IC50, for `Oc1cc(O)c2c(c1)O[C@H](c1cc(O)c(O)c(O)c1-c1c([C@H]3Oc4cc(O)cc(O)c4C[C@H]3O)cc(O)c(O)c1O)[C@H](O)C2`
Marked response: 0.98

Exam item: I have this molecule here, O=C1c2c(O)cc(O)cc2O[C@H](c2ccc(O)c(O)c2)[C@H]1O [(+)-TAXIFOLIN] , and I need its recorded log10 of IC50.
Marked response: 0.99

Exam item: Param item = `O=C(/C=C/c1ccc(O)cc1)O[C@@H]1Cc2c(O)cc(O)cc2O[C@@H]1c1cc(O)c(O)c(O)c1` ; retrieve measured log10 of IC50.
Marked response: 1.54

Exam item: Look up log10 of IC50: `Oc1cc(O)c2c(c1)O[C@H](c1cc(O)c(O)c(O)c1)[C@H](O)[C@H]2c1c(O)cc(O)c2c1O[C@H](c1cc(O)c(O)c(O)c1)[C@H](O)C2`
Marked response: 1.26

Exam item: Please look up its log10 of IC50: `O=C(O[C@@H]1Cc2c(cc(O)c(Cc3c(O)cc(O)c4c3O[C@H](c3cc(O)c(O)c(O)c3)[C@H](OC(=O)c3cc(O)c(O)c(O)c3)C4)c2O)O[C@@H]1c1cc(O)c(O)c(O)c1)c1cc(O)c(O)c(O)c1`
Marked response: 1.60

Continuing:
Exam item: Given the molecule Oc1ccc([C@H]2Oc3cc(O)cc(O)c3C[C@H]2O)cc1 [EPIAFZELECHIN (2R,3R)(-)] , what is its reported log10 of IC50?
Marked response: 2.00

Exam item: Entry under review: `O=C(O[C@H](Cc1c(O)cc(O)cc1O)[C@@H](c1cc(O)c(O)c(O)c1)c1c(O)cc2c(c1O)C[C@@H](OC(=O)c1cc(O)c(O)c(O)c1)[C@@H](c1cc(O)c(O)c(O)c1)O2)c1cc(O)c(O)c(O)c1` . Reported log10 of IC50?
Marked response: 1.54
